target: human serum albumin (human) (UniProt P02768); experiment: indirect ELISA, HSA coated
Sequence (P02768 25-609 limits assumed): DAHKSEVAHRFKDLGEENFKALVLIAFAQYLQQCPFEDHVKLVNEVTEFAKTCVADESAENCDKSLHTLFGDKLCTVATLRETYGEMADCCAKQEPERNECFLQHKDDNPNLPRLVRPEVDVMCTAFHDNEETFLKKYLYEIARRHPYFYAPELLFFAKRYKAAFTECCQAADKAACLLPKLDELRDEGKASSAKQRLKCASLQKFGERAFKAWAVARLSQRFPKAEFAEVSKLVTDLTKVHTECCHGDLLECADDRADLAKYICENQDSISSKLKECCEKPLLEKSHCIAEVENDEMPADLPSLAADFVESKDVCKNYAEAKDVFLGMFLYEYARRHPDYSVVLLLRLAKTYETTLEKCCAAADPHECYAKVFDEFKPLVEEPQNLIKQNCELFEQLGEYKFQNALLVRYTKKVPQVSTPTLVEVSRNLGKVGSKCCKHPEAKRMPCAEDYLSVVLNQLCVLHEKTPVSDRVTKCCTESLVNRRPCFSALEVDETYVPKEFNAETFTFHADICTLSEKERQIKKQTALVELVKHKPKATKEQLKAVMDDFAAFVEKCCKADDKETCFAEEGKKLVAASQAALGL
recordedEndpoint: ELISA affinity (LogIC50 (oD450nm))

a. H40 (VHH) VHH: EVQLVESGGGLVQAGASLRLSCAASGGTFSSYIMGWFRQAPGKEREFVAAISWSGRSTHYADSVKGRFAISRDNDRVYLQMNSLKPEDTAVYSCAADPNYTWRDDRYYREEGYTYWGQGTQVTVSS
b. H39 (VHH) VHH: QVQLVESGGGLVQAGVSLRLSCAASERTFSSYIMGWFRQAPGKEREFIAAISWSGGNTDYAGSVQGRFTISRDNAQNTVYLQMNSLEPEDTAVYYCAADATHSWSYGSRWYDRNYNYWGQGTQVTVSS
Asked: When the recorded ELISA affinity (LogIC50 (oD450nm)) values are compared, which is smaller: that of a or that of b ? // output: label of the selected item
Given back: a

A. H23 (VHH) VHH: DVQLVESGGGLVQAGGSLTLSCAASGRTFSSSTMGWFRRAPGKEREFVAAISGSARTTDYADSVKGRFTISRDNAKNTVYLQMISLKPEDTAIYYCARKRVVDVTTSNYELRYDYWGQGTQVTVSS
B. H42 (VHH) VHH: HVQLVESGGGLVQAGGSLRLSCAASGLTFSNYAMGWFRQAPGKEREFVVAISWSGANTYYSDSVKGRFTASRDNAKKTVYLQMNSLKPEDTAVYYCAADYRGLGYSTAHEYDYWGQGTQVTVSS
Asked: Choose between A and B : whose measured ELISA affinity (LogIC50 (oD450nm)) value is numerically larger? // output: label of the selected item
Given back: B
(B: 4.92, A: 1.62)
